Assay: Volume of distribution at steady state in Sprague-Dawley rat at 1 mg/kg, iv measured for 24 hrs by LC-MS analysis
Format: ADME, organism-based
Conditions: in vivo, read-out: Vdss
value kind: Vd (L/kg)
Expressed in L/kg, but write only the number.

Entry CC(C)[C@@H]1NC(=O)CCCCCCCCCCCC(=O)N[C@@H](Cc2ccccc2)COC1=O , Vd reported as 1.53

====

Experiment: Half life in Sprague-Dawley rat at 30 mg/kg, po measured for 24 hrs by LC-MS analysis
Type: ADME, organism-based
Conditions: in vivo
value kind: half-life (h)
// units = h; emit number, no label

// recorded half-life for CC(C)[C@@H]1NC(=O)CCCCCCCCCCCC(=O)N[C@@H](Cc2ccccc2)COC1=O : 2.38

====

Experiment: Lipophilicity, logD of compound at pH 7.4
Format: physicochemical
Details: buffer
value kind: logD

For this compound ( CC(C)[C@@H]1NC(=O)CCCCCCCCCCCC(=O)N[C@@H](Cc2ccccc2)COC1=O ), measured logD is 5

====

Assay: MRT (infinity) in Sprague-Dawley rat at 1 mg/kg, iv measured for 24 hrs by LC-MS analysis
Assay type: ADME, organism-based
Conditions: in vivo
value kind: MRT inf (min)
// return numeric value only (unit: min, not printed)

The compound identified as CC(C)[C@@H]1NC(=O)CCCCCCCCCCCC(=O)N[C@@H](Cc2ccccc2)COC1=O registered its MRT inf at 45

====

Assay: MRT (infinity) in Sprague-Dawley rat at 30 mg/kg, po measured for 24 hrs by LC-MS analysis
Type: ADME, organism-based
Details: in vivo
value kind: MRT inf
Include the unit after the number when you answer.

The compound identified as CC(C)[C@@H]1NC(=O)CCCCCCCCCCCC(=O)N[C@@H](Cc2ccccc2)COC1=O registered its MRT inf at 3.11 h

====

Test: Tmax in Sprague-Dawley rat at 30 mg/kg, po measured for 24 hrs by LC-MS analysis
Format: ADME, organism-based
Settings: in vivo
value kind: Tmax (min)
Respond numerically; units are min and should not be typed.

Sample CC(C)[C@@H]1NC(=O)CCCCCCCCCCCC(=O)N[C@@H](Cc2ccccc2)COC1=O ; Tmax observed: 15

====

Assay: AUClast in Sprague-Dawley rat at 30 mg/kg, po measured for 24 hrs by LC-MS analysis
Format: ADME, organism-based
Conditions: in vivo
value kind: AUC(0-t) at 24 h
The answer should read as a number with its unit following.

Lab note: CC(C)[C@@H]1NC(=O)CCCCCCCCCCCC(=O)N[C@@H](Cc2ccccc2)COC1=O gave AUC(0-t) at 24 h of 32.3 ng·h/mL

====

Assay: AUClast in Sprague-Dawley rat at 1 mg/kg, iv measured for 24 hrs by LC-MS analysis
Format: ADME, organism-based
Settings: in vivo
value kind: AUC(0-t) at 24 h (ng·h/mL)
Note: unit ng·h/mL is implicit; provide only the numeric part.

The recorded AUC(0-t) at 24 h for CC(C)[C@@H]1NC(=O)CCCCCCCCCCCC(=O)N[C@@H](Cc2ccccc2)COC1=O is 1260

====

System: KBv200
Experiment: Inhibition of ADR uptake in human KBv200 cells at 10 uM incubated for 10 mins by flow cytometry
Type: functional, cell-based
Calls of active or inactive are those of the source. The rule behind the calls is not given here.
Form entry, call: pick from label 1 for active, label 0 for inactive

molecule	target desc	category label
CC(C)[C@@H]1NC(=O)CCCCCCCCCCCC(=O)N[C@@H](Cc2ccccc2)COC1=O	KBv200	label 0
COc1cc2c(cc1OC)CN(CCc1ccc(NC(=O)c3cc(OC)c(OC)cc3NC(=O)c3cnc4ccccc4c3)cc1)CC2	KBv200	label 1

Problem: Assay outcome for COc1ccc(CCN(C)CCCC(C#N)(c2ccc(OC)c(OC)c2)C(C)C)cc1OC (centres undefined) : what was it?
Solution: label 0

Problem: What call does the record list for CC[C@H](C)C1OC(=O)[C@H](C(C)C)NC(=O)CCCCCCC[C@H](O)[C@@H](C)C[C@@H]1C (some centres undefined) ?
Solution: label 0
